# Tested on: HT-1080
# ASSAY_COMMENT: relative cell viability with RSL3 co-treatment (fraction of control); higher = stronger protection from RSL3-induced ferroptosis (higher viability)
# EXPERIMENTAL_SETUP: 10 µM
REPORTED_PROPERTY: relative cell viability
Reply with the value as a number alone.

Input line: # get_value(readout='relative cell viability', item= `CC(C)(C)c1ccc(S(=O)(=O)/C=C/C#N)cc1` )
Output line: 0.707

Input line: Would you mind telling me what relative cell viability value was observed for CN1CCN(C2CCN(C(=O)Nc3cc(Oc4ccc(NC(=O)C5(C(=O)Nc6ccc(F)cc6)CC5)c(F)c4)ccn3)CC2)CC1 [Golvatinib (E7050)] ?
Output line: 0.717

Input line: Please report the recorded relative cell viability for `Cc1cc(Nc2cc(N3CCN(C)CC3)nc(Sc3ccc(NC(=O)C4CC4)cc3)n2)n[nH]1` .
Output line: 0.71

Input line: Would you kindly share the measured relative cell viability for Cc1ccc(Nc2nccc(N(C)c3ccc4c(C)n(C)nc4c3)n2)cc1S(N)(=O)=O [Pazopanib] ?
Output line: 0.71

Input line: # query: relative cell viability of entry `CCn1c(-c2nonc2N)nc2c(C#CC(C)(C)O)ncc(OC[C@H]3CCCNC3)c21`
Output line: 0.563

Input line: For the molecule shown here, `COc1cc2ncnc(Nc3ccc(O)c(Br)c3)c2cc1OC` , give the reported relative cell viability.
Output line: 0.817

Input line: # get_value(readout='relative cell viability', item= `CO[C@@H](C(=O)N1Cc2[nH]nc(NC(=O)c3ccc(N4CCN(C)CC4)cc3)c2C1)c1ccccc1` )
Output line: 0.507

Input line: Could you share which relative cell viability value was measured for `COc1cccc(-n2c(=O)[nH]c3cc(Cl)n(-c4ccc(-c5cccc(OC)c5O)cc4)c3c2=O)c1` ?
Output line: 0.807

Input line: Look at this molecule and give its reported relative cell viability. `CNC(=O)c1cc(COc2nnc(Nc3ccc(Cl)cc3)c3ccoc23)ccn1`
Output line: 0.623

###

I'd be grateful if you could share measured relative cell viability for these entries.
# Test system: HT-1080;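 also: viability read as CCK-8 absorbance at 450 nm in cells co-exposed to the GPX4 inhibitor RSL3, relative to a 0.01% DMSO vehicle control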
# ASSAY_COMMENT: relative cell viability with RSL3 co-treatment (fraction of control); higher = stronger protection from RSL3-induced ferroptosis (higher viability)
# EXPERIMENTAL_SETUP: 10 µM
// print number alone

Input line: I'd like to know its relative cell viability. The molecule in question is CN1CCN(c2ccc3nc(-c4c(N)c5c(F)cccc5[nH]c4=O)[nH]c3c2)CC1 [Dovitinib (TKI-258, CHIR-258)]
Output line: 0.827

Input line: Could you tell me which relative cell viability is on file for `CCOc1cc(C(=O)N2CCC(N3CCN(C)CC3)CC2)ccc1Nc1ncc2c(n1)N(C1CCCC1)c1ccccc1C(=O)N2C` ?
Output line: 0.457

Input line: What value of relative cell viability has been recorded for this entry: `COc1ccc(-c2cc3c(C)nc(N)nc3n([C@H]3CC[C@H](OCCO)CC3)c2=O)cn1`
Output line: 0.597

Input line: # lookup: relative cell viability of `CN1CCC(Nc2nc(Nc3ccc(Oc4ccccc4)cc3)c3c(=O)[nH]cc(Br)c3n2)CC1`
Output line: 0.68

Input line: Request the reported relative cell viability associated with `CO[C@H]1C[C@@H]2CC[C@@H](C)[C@@](O)(O2)C(=O)C(=O)N2CCCC[C@H]2C(=O)O[C@H]([C@H](C)C[C@@H]2CC[C@@H](OC(=O)C(C)(CO)CO)[C@H](OC)C2)CC(=O)[C@H](C)/C=C(\C)[C@@H](O)[C@@H](OC)C(=O)[C@H](C)C[C@H](C)/C=C/C=C/C=C/1C`
Output line: 0.367

Input line: What value of measured relative cell viability is listed for `CCOC(=O)c1cnc2ccc(-c3cncc(NS(=O)(=O)c4ccccc4)c3)cn12` ?
Output line: 0.717

Input line: Item under review: `Oc1ccc(Nc2nc(-c3ccc(Cl)cc3)cs2)cc1` . Reported relative cell viability?
Output line: 0.66

Input line: Which relative cell viability reading was recorded for the molecule `C=CC(=O)Nc1ccc2ncnc(Nc3cccc(Br)c3)c2c1` ?
Output line: 0.593

Input line: Give its relative cell viability value. Item: `CC1(COc2ccc3c(c2)ncn3-c2ccc3cccc(N4CCC(N)CC4)c3n2)COC1`
Output line: 0.683

Input line: Recorded relative cell viability for `COc1cc(N2CCC(N3CCN(C)CC3)CC2)ccc1Nc1ncnc(Nc2ccccc2S(=O)(=O)C(C)C)n1` , please?
Output line: 0.807

Input line: Can you share its relative cell viability? I mean this molecule: `CN(C)S(=O)(=O)c1ccc2c(c1)/C(=C/c1cc3c([nH]1)CCCC3)C(=O)N2`
Output line: 0.727

Input line: Please look up its relative cell viability: CO[C@H]1C[C@@H]2CC[C@@H](C)[C@@](O)(O2)C(=O)C(=O)N2CCCC[C@H]2C(=O)O[C@H]([C@H](C)C[C@@H]2CC[C@H](n3cnnn3)[C@H](OC)C2)CC(=O)[C@H](C)/C=C(\C)[C@@H](O)[C@@H](OC)C(=O)[C@H](C)C[C@H](C)/C=C/C=C/C=C/1C [Zotarolimus(ABT-578)]
Output line: 0.607

Input line: Fill in: relative cell viability of `O=c1[nH]nc(Sc2ncc([N+](=O)[O-])s2)n1-c1ccc2c(c1)OCCO2` is ___
Output line: 0.533

Input line: Fill in: relative cell viability of `COc1cc2ncnc(Nc3cccc(Cl)c3F)c2cc1OC(=O)N1CCN(C)C[C@H]1C` is ___
Output line: 0.617

Input line: Entry Cc1cc(C(C)Nc2ccccc2)c2nc(N3CCOCC3)cc(=O)n2c1 (stereo unspecified) has what relative cell viability?
Output line: 0.627

Input line: Which value of relative cell viability has been reported for `CS(=O)(=O)c1ccc(-c2cnc(N)c(C(=O)Nc3ccccc3)n2)cc1` in the records?
Output line: 0.713

Input line: Can you share its relative cell viability? I mean this molecule: O=c1sn(-c2cccc3ccccc23)c(=O)n1Cc1ccccc1 [Tideglusib]
Output line: 0.74

Input line: Would you mind telling me what relative cell viability value was observed for C[C@H]1[C@H](C)CC[C@]2(C(=O)O)CC[C@]3(C)C(=CC[C@@H]4[C@@]5(C)C[C@@H](O)[C@H](O)[C@@](C)(CO)[C@@H]5CC[C@]43C)[C@H]12 [Asiatic Acid] ?
Output line: 0.58

Input line: Please look up its relative cell viability: Nc1cc(C(F)(F)F)c(-c2cc(N3CCOCC3)nc(N3CCOCC3)n2)cn1 [Buparlisib (BKM120, NVP-BKM120)]
Output line: 0.643

Input line: Find the recorded relative cell viability belonging to Cc1nc(Nc2ncc(C(=O)Nc3c(C)cccc3Cl)s2)cc(N2CCN(CCO)CC2)n1 [Dasatinib] and report it.
Output line: 0.553

Input line: Give the measured relative cell viability of C[C@@H]1COC(Nc2ccc3ncnc(Nc4ccc(OCc5nccs5)c(Cl)c4)c3c2)=N1 [Varlitinib] .
Output line: 0.597

Input line: I am curious: what relative cell viability value has been reported for `CNC(=O)c1ccc(C)c(-n2c(C)cc(OCc3ccc(F)cc3F)c(Br)c2=O)c1` ?
Output line: 0.747

Input line: Give its relative cell viability value. Item: O=C1Nc2ccccc2/C1=C1/Nc2ccccc2C1=O [Indirubin]
Output line: 0.75

Input line: Quick one: relative cell viability of `CN1CCN(Cc2ccc(-c3cnc4[nH]cc(-c5ccc6[nH]ccc6c5)c4c3)cc2)CC1` ?
Output line: 0.497

Input line: Which relative cell viability reading was recorded for the molecule `Cc1c(NC(=O)c2ccc(C(C)(C)C)cc2)cccc1-c1cn(C)c(=O)c(Nc2ccc(C(=O)N3CCOCC3)cc2)n1` ?
Output line: 0.647

Input line: Param item = `CCc1nc(-c2cccc(C)c2)c(-c2ccnc(NC(=O)c3ccccc3)c2)s1` ; retrieve measured relative cell viability.
Output line: 0.783

Source of measurements: the supplement of paper PMC9588786
